Consider the following variants; for each one, report its protein stability index.
B1: WDFY1 (parent)
chain: FWNIKQMWDTKTLGLRQHHCRKCG

Variants of: B1
ASSAY OVERVIEW: protein stability index of a GFP-peptide fusion (GPS, HEK-293T) (PSI 1-6); higher = more stable;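 further: lentivirally expressed fusions sorted by FACS into six bins by GFP to DsRed ratio, PSI derived from sequencing read proportions per bin multiplied by bin number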
EXPERIMENTAL CONTEXT: c terminus: a fixed tail appended
Just the number, please, no unit after it.

Would you kindly share the measured protein stability index for `N3Y` ? 2.37

Which protein stability index value belongs to `T12G` ? 1.77

What measured protein stability index goes with `W2M` ? 2.32

Fill in the blank: the reported protein stability index of `G24A` is ____. 1.84

So what's the measured protein stability index for this one? `T12K` 2

Bench note: what protein stability index did `F1W` show? 2.16
